Catalogue of DC50 readings, one per entry.
target: BRAF V600E (Homo sapiens, UniProt P15056, V600E); construct: expressed in transfected cells; assay: Cellular assay of target protein degradation, T-Rex 293 cells stably transfected with HA-BRAF_V600E (HA immunofluorescence, high content imaging); format: cell-based; settings: read-out: BRaf V600E DC50; half maximal degradation, T-Rex 293 HA-BRAF V600E
Sequence (P15056 whole entry V600E): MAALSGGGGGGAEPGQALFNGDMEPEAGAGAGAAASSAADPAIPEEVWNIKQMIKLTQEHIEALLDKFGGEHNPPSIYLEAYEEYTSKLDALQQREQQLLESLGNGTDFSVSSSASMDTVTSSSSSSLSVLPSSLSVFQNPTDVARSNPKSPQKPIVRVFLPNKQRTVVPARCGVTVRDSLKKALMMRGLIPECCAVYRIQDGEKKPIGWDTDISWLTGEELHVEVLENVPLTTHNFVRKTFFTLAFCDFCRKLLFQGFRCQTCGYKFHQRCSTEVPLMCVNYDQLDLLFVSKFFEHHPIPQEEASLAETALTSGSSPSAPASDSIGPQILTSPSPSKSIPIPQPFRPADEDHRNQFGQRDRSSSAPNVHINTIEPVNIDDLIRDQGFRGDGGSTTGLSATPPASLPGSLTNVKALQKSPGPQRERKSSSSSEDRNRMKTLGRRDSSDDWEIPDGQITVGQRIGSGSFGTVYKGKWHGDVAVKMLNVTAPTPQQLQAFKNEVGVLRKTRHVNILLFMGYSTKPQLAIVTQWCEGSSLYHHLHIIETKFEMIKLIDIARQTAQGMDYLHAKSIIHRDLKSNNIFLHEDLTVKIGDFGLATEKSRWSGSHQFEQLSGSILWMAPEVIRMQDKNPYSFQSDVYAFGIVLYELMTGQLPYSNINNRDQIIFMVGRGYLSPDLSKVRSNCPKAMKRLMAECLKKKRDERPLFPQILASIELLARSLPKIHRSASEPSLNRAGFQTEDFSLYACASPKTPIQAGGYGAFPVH

compound	system.under.test	DC50
O=C1CCC(NC(=O)N2CCCc3c(C4CCN(CC5CCN(c6ccc(-c7cnc8[nH]cc(C(=O)c9c(F)ccc(NS(=O)(=O)N%10CC[C@@H](F)C%10)c9F)c8c7)cc6)CC5)CC4)ccnc32)C(=O)N1 (some centres unmarked)	BRAF V600E (Homo sapiens, UniProt P15056, V600E)	5 to 50 nM
CC(C)(C1CCN(c2ccc(-c3cnc4[nH]cc(C(=O)c5c(F)ccc(NS(=O)(=O)N6CC[C@@H](F)C6)c5F)c4c3)cc2)CC1)N1CCN(c2ccc3c(c2)CN(C2CCC(=O)NC2=O)C3=O)CC1 (some centres unmarked)	BRAF V600E (Homo sapiens, UniProt P15056, V600E)	5 to 50 nM
O=C1CCC(N2Cc3cc(N4CCC(CN5CCCN(c6ccc(-c7cnc8[nH]cc(C(=O)c9c(F)ccc(NS(=O)(=O)N%10CC[C@@H](F)C%10)c9F)c8c7)cc6)CC5)CC4)ccc3C2=O)C(=O)N1 (some centres unmarked)	BRAF V600E (Homo sapiens, UniProt P15056, V600E)	50 to 500 nM
O=C1CCC(N2Cc3cc(N4CCC(CC5CCN(c6ccc(-c7cnc8[nH]cc(C(=O)c9c(F)ccc(NS(=O)(=O)N%10CC[C@@H](F)C%10)c9F)c8c7)cc6)CC5)CC4)ccc3C2=O)C(=O)N1 (some centres unmarked)	BRAF V600E (Homo sapiens, UniProt P15056, V600E)	50 to 500 nM
CC(C)(C1CCN(c2ccc(-c3cnc4[nH]cc(C(=O)c5c(F)ccc(NS(=O)(=O)N6CC[C@@H](F)C6)c5F)c4c3)cc2)CC1)N1CC2(CN(c3ccc4c(c3)CN(C3CCC(=O)NC3=O)C4=O)C2)C1 (some centres unmarked)	BRAF V600E (Homo sapiens, UniProt P15056, V600E)	5 to 50 nM
